Test system: ELAM-1
assaySummary: ELISA of ELAM-1 expression in TNF-stimulated HUVEC
Format: cell-based, human
conditionsUsed: 30 nM oligo; HUVEC, TNF-α […] 4 hours
Strand notation (5' to 3'): a small letter for the sugar, then the base; units joined by * are phosphorothioate-linked, units joined directly phosphodiester-linked; [ ] holds rarer units or linkages, { } end groups; capitals alone tell only the bases. d = 2'-deoxy (DNA)
measureName: ELAM-1 expression (% of control)

ISIS 4764: phosphorothioate, human ELAM-1 5′-UTR 1-19, SEQ ID NO 52, GAAGTCAGCCAAGAACAGCT (antisense dG*dA*dA*dG*dT*dC*dA*dG*dC*dC*dA*dA*dG*dA*dA*dC*dA*dG*dC*dT)
70.2 % of control
ISIS 4720: phosphorothioate, human ELAM-1 3′-UTR 3093-3112, SEQ ID NO 59, GGAATGCAAAGCACATCCAT (antisense dG*dG*dA*dA*dT*dG*dC*dA*dA*dA*dG*dC*dA*dC*dA*dT*dC*dC*dA*dT)
63.5 % of control
ISIS 2678: P=S, human ELAM-1 3′-UTR 3557-3576, SEQ ID NO 32, ACCTCTGCTGTTCTGATCCT (antisense dA*dC*dC*dT*dC*dT*dG*dC*dT*dG*dT*dT*dC*dT*dG*dA*dT*dC*dC*dT)
24.9 % of control

Data request: Fill in ELAM-1 expression (% of control) for ISIS 2674: P=S, human ELAM-1 3′-UTR 2617-2637, SEQ ID NO 31, CACAATCCTTAAGAACTCTTT (antisense dC*dA*dC*dA*dA*dT*dC*dC*dT*dT*dA*dA*dG*dA*dA*dC*dT*dC*dT*dT*dT) tested with ELAM-1.
Data returned: 33.5 % of control

Data request: # assay system ELAM-1: give ELAM-1 expression (% of control) of ISIS 2686: P=S, human ELAM-1 AUG 148-168, SEQ ID NO 36, TGAAGCAATCATGACTTCAAG (antisense dT*dG*dA*dA*dG*dC*dA*dA*dT*dC*dA*dT*dG*dA*dC*dT*dT*dC*dA*dA*dG)
Data returned: 51.1 % of control

Data request: # return ELAM-1 expression (% of control) for ISIS 2687: P=S, human ELAM-1 5′-UTR 17-36, SEQ ID NO 37, TATAGGAGTTTTGATGTGAA (antisense dT*dA*dT*dA*dG*dG*dA*dG*dT*dT*dT*dT*dG*dA*dT*dG*dT*dG*dA*dA) , test system: ELAM-1
Data returned: 91.1 % of control

Data request: Recall the reported ELAM-1 expression (% of control) of ISIS 2694: P=S, human ELAM-1 3′-UTR 2933-2953, SEQ ID NO 39, GACAATATACAAACCTTCCAT (antisense dG*dA*dC*dA*dA*dT*dA*dT*dA*dC*dA*dA*dA*dC*dC*dT*dT*dC*dC*dA*dT) on ELAM-1 and write it down.
Data returned: 72.0 % of control

Data request: Tell me ELAM-1 expression (% of control) of ISIS 4759: phosphorothioate, human ELAM-1 5′-UTR 64-83, SEQ ID NO 53, ACAGGATCTCTCAGGTGGGT (antisense dA*dC*dA*dG*dG*dA*dT*dC*dT*dC*dT*dC*dA*dG*dG*dT*dG*dG*dG*dT) when tested on ELAM-1.
Data returned: 30.0 % of control

The measured values listed here are drawn from patent US6849612B2.
